- target: T1, apical domain of cynomolgus CD71 (cynomolgus, UniProt A0A2K5X958 189-383)
- T1 construct: domain: apical domain; also called Cyno apical domain
- T1 sequence (A0A2K5X958 entry or part of it): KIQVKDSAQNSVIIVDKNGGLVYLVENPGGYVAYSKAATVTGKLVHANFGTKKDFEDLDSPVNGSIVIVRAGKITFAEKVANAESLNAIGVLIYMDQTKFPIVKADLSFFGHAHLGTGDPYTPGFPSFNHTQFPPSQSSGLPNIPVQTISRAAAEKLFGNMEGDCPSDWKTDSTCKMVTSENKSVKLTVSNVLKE
- test.protocol: primary ELISA, luminescence; further: test concentration or dose not given here
test.readout: RLU (RLU)

CD71-binding FN3 domain of SEQ ID NO: 226 (designed binder) MSLPAPKNLVISRVTEDSARLSWTAPDAAFDSFEIGYFENLYLGEAIVLTVPGSERSYDLTGLKPGTEYWVAIGGVKGGLWSLPLSAIFTT : 4.33e+06
CD71-binding FN3 domain of SEQ ID NO: 227 (designed binder) MSLPAPKNLVVSRVTEDSARLSWTAPDAAFDSFEIAYAELSTGEAIVLTVPGSERSYDLTGLKPGTEYYVHIGGVKGGSWSIPLSAIFTT : 4.23e+06
CD71-binding FN3 domain of SEQ ID NO: 222 (designed binder) MSLPAPKNLVVSRVTEDSARLSWTAPDAAFDSFFIGYLEPQPPGEAITLYVPGSERSYDLTGLKPGTEYNVTIQGVKGGFPSGPLIASFTT : 6.01e+06
CD71-binding FN3 domain of SEQ ID NO: 230 (designed binder) MSLPAPKNLIVSRVTEDSARLSWTAPDAAFDSLEIGYFENLYLGEAIVLTVPGSERSYDLTGLKPGTEYWVQIGGVKGGNWSAPLSAIFTT : 4.73e+06
CD71-binding FN3 domain of SEQ ID NO: 221 (designed binder) MSLPAPKNLVVSRVTEDSARLSWTAPDAAFDSFFIGYLEPRPPGEAIHLYVPGSERSYDLTGLKPGTEYNITIQGVKGGFPSIPLIASFTT : 6.08e+06
CD71-binding FN3 domain of SEQ ID NO: 232 (designed binder) MSLPAPKNLVVSRVTEDSARLSWTAPDAAFDSFEISYWEHTFNGEAIILFVPGSERSYDLTGLKPGTEYVVFIGGVKGGVWSVPLSAIFTT : 5.41e+06
CD71-binding FN3 domain of SEQ ID NO: 231 (designed binder) MSLPAPKNLVVSRVTEDSARLSWTAPDAAFDSFFIGYLEPQPPGEAIHLFVPGSERSYDLTGLKPGTEYNVTIQGVKGGFPSEPLIANSTT : 5.52e+06
CD71-binding FN3 domain of SEQ ID NO: 220 (designed binder) MSLPAPKNLVVSRVTEDSARLSWTAPDAAFDSFEIAYWEQSYTGEAIVLTVPGSERSYDLTGLKPGTEYWVQIGGVKGGNWSAPLSAIFTT : 4.69e+06
CD71-binding FN3 domain of SEQ ID NO: 219 (designed binder, the tag is not included in the chain) MSLPAPKNLVVSRVTEDSARLSWTAPDAAFDSFAIMYGERGNPGEAIVLTVPGSERSYDLTGLKPGTEYAVWIYGVKGGNYSYPLSAIFTT : 4.58e+06

Numbers sourced from patent US20260151494A1.
